experimental.target: T1, ARHGEF11, O15085
T1 sequence (O15085 42-136, limits assumed, looked up): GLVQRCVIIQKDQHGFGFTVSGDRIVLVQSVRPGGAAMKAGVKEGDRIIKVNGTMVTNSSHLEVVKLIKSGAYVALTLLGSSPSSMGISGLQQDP
test.protocol: holdup assay
Set-up: key: below the threshold = too weak to quantify, mostly under pKd 3.1 to 4
condition.set: plain residues with an end cap or a label only (N-terminal biotin on a linker: ado-ado)
quantity.measured: pKd

binder	quantity.measured	experimental.result
PPYRHRNTVV [ERBB4, Q15303]	pKd	4.06
TPPAAKKSRI [BAZ1A, Q9NRL2]	pKd	3.92
